Measured pEC50 values are reported for all entries that follow.
- test_target: human GLP-1 receptor (Homo sapiens, UniProt P43220)
- Construct: expressed in transfected cells; host or cells: BHK (Baby Hamster Kidney) cells, clone BHK 467-12A KZ-10, stably transfected, with CRE-luciferase reporter
- Sequence (P43220 24-463): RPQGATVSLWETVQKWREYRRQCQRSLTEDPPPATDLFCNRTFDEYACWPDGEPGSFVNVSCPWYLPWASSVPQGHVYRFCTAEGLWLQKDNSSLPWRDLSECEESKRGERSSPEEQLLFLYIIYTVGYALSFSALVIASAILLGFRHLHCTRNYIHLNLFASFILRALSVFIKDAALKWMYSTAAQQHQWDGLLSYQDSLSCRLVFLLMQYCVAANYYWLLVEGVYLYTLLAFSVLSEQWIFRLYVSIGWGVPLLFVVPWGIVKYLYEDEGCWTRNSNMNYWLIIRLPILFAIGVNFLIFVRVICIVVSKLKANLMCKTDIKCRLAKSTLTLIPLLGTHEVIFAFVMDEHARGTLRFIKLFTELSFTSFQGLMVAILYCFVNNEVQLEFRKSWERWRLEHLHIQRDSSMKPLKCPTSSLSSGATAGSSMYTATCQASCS
- assay_remarks: Human GLP-1 receptor in vitro potency assay (CRE-luciferase reporter, BHK cells)
- Type: cell-based
pEC50: −log10 of the molar value. Starred links: 1 amine or outer side, 2 acyl side, 3 side chain; linkers in the order of their positions; H or OH if unused. Groups on a side chain read outwards from the residue. *: point of attachment. Decanoyl(10-(4-HOOC-PhO)) = O=C(O)c1ccc(OCCCCCCCCCC(=O)*)cc1; γGlu = O=C(O)[C@H](CCC(=O)[*:2])N[*:1]; AEEA = NCCOCCOCC(=O)O
property_name: pEC50

# substance, quantitative_readout
data = [
    ("H-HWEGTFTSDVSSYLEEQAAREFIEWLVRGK([AEEA-AEEA-γGlu-Decanoyl(10-(4-HOOC-PhO))])GEGGGGGASELSTAALGRLSAELHELK([AEEA-AEEA-γGlu-Decanoyl(10-(4-HOOC-PhO))])TLPRTETGSGSP-NH2 [Compound 0234]", 10.41),
    ("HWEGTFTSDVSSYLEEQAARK([AEEA-AEEA-γGlu-Decanoyl(10-(4-HOOC-PhO))])FIEWLVRGK([AEEA-AEEA-γGlu-Decanoyl(10-(4-HOOC-PhO))])GEGGGGGGGGGEASELSTAALGRLSAELHELATLPRTETGSGSP-NH2 [Compound 0101]", 11.15),
    ("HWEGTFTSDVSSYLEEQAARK([AEEA-AEEA-γGlu-Decanoyl(10-(4-HOOC-PhO))])FIEWLVRGK([AEEA-AEEA-γGlu-Decanoyl(10-(4-HOOC-PhO))])GEGEASELSTAALGRLSAELHELATLPRTETGSGSP-NH2 [Compound 0099]", 11.02),
    ("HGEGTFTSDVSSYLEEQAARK([AEEA-AEEA-γGlu-Decanoyl(10-(4-HOOC-PhO))])FIEWLVRGK([AEEA-AEEA-γGlu-Decanoyl(10-(4-HOOC-PhO))])GEGGGGGEASELSTAALGRLSAELHELATLPRTETGSGSP-NH2 [Compound 0097]", 11.00),
]

* * *

Measured EC50 values are reported for all entries that follow.
- test_target: human GLP-1 receptor (Homo sapiens, UniProt P43220)
- Construct: expressed in transfected cells; host or cells: BHK (Baby Hamster Kidney) cells, clone BHK 467-12A KZ-10, stably transfected, with CRE-luciferase reporter
- assay_remarks: Human GLP-1 receptor in vitro potency assay (CRE-luciferase reporter, BHK cells)
- Format: cell-based
- condition_description: Table 4a; BHK cells expressing human GLP-1R, CRE-Luc, 3 hours; read-out: Human GLP-1R potency [EC50 (pM)]
Starred links: 1 amine or outer side, 2 acyl side, 3 side chain; linkers in the order of their positions; H or OH if unused. Non-standard residues stand in square brackets, D forms with d. Groups on a side chain read outwards from the residue. *: point of attachment. C20 diacid = O=C(O)CCCCCCCCCCCCCCCCCCC(=O)*; C18 diacid = O=C(O)CCCCCCCCCCCCCCCCC(=O)*; C16 diacid = O=C(O)CCCCCCCCCCCCCCC(=O)*; γGlu = O=C(O)[C@H](CCC(=O)[*:2])N[*:1]; εLys = N[C@@H](CCCCN[*:1])C(=O)[*:2]; AEEA = NCCOCCOCC(=O)O; Aib = CC(C)(N)C(=O)O
property_name: EC50

# substance, test_target, result
records = [
    ("H-H[Aib]EGTFTSDVSSYLEEQAARK([AEEA-AEEA-γGlu-C20 diacid])FIEWLVRGASELSTAALGRLSAELHELATLPRTETGSGSP-NH2 [Compound 0581]", "human GLP-1 receptor (Homo sapiens, UniProt P43220)", "17 pM"),
    ("H-H[Aib]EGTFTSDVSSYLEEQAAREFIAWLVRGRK([AEEA-γGlu-C18 diacid])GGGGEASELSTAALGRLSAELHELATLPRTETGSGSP-NH2 [Compound 0660]", "human GLP-1 receptor (Homo sapiens, UniProt P43220)", "3.9 pM"),
    ("H-H[Aib]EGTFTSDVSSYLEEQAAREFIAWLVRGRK([εLys-εLys-γGlu-C18 diacid])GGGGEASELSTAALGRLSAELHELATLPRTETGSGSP-NH2 [Compound 0656]", "human GLP-1 receptor (Homo sapiens, UniProt P43220)", "4.1 pM"),
    ("H-H[Aib]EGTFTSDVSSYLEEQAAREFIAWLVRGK([AEEA-AEEA-γGlu-C16 diacid])GGGGGEASELSTAALGRLSAELHELATLPRTETGK([AEEA-AEEA-γGlu-C16 diacid])GSP-NH2 [Compound 0285]", "human GLP-1 receptor (Homo sapiens, UniProt P43220)", "19 pM"),
    ("H-H[Aib]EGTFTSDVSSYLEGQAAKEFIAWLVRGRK([εLys-AEEA-AEEA-γGlu-C18 diacid])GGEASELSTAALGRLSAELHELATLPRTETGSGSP-NH2 [Compound 0045]", "human GLP-1 receptor (Homo sapiens, UniProt P43220)", "19.4 pM"),
]

* * *

- test_target: human amylin receptor (hAmyR3) (Homo sapiens, UniProt O60896+P30988)
- Construct: host or cells: BHK cells (Hollex-1 line: human calcitonin receptor (a) + CRE-Luc), further transfected with human RAMP3
- Sequence (P30988 25-474): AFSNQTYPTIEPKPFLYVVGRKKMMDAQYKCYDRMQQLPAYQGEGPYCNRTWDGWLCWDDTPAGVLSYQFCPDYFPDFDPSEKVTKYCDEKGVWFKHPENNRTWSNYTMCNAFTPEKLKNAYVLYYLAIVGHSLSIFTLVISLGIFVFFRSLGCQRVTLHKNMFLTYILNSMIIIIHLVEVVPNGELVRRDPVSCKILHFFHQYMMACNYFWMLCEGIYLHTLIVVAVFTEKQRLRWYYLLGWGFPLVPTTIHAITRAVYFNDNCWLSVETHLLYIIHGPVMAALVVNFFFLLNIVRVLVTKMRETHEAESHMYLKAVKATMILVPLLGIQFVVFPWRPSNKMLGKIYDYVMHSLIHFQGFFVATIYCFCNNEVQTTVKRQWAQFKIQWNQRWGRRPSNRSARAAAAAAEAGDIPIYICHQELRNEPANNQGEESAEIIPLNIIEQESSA
- Sequence (O60896 24-148): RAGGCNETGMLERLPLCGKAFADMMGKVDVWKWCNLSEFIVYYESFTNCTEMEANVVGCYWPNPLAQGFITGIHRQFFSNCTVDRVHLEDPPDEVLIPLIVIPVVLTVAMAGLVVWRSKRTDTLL
- assay_remarks: Human amylin receptor in vitro potency assay (CRE-luciferase reporter, BHK cells);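 also: BHK cells expressing human calcitonin receptor plus RAMP3 (amylin-3 receptor) with a CRE-luciferase reporter, agonist activity read as luminescence from cAMP-driven transcription, 7-point serial dilutions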
- Type: cell-based
- condition_description: Table 4a; BHK hAmyR3/CRE-Luc cells, 3 hours; read-out: Human AmyR3 potency [EC50 (pM)]
Starred links: 1 amine or outer side, 2 acyl side, 3 side chain; linkers in the order of their positions; H or OH if unused. Non-standard residues stand in square brackets, D forms with d. Groups on a side chain read outwards from the residue. *: point of attachment. X1 = O=C(O)CCCCCCCCCCCCCCC(=O)N[C@@H](CCC(=O)NCCOCCOCC(=O)NCCOCCOCC(=O)NCCCC[C@H](NC(=O)COCCOCCNC(=O)COCCOCCNC(=O)CC[C@H](NC(=O)CCCCCCCCCCCCCCC(=O)O)C(=O)O)C(=O)*)C(=O)O; Butyryl(4-SO2NHCO(CH2)16Tz) = O=C(CCCCCCCCCCCCCCCCc1nnn[nH]1)NS(=O)(=O)CCCC(=O)*; C20 diacid = O=C(O)CCCCCCCCCCCCCCCCCCC(=O)*; C16 diacid = O=C(O)CCCCCCCCCCCCCCC(=O)*; γGlu = O=C(O)[C@H](CCC(=O)[*:2])N[*:1]; Desaminohistidyl = O=C(CCc1c[nH]cn1)*; εLys = N[C@@H](CCCCN[*:1])C(=O)[*:2]; Trx = NC[C@H]1CC[C@H](C(=O)O)CC1; AEEA = NCCOCCOCC(=O)O; Aib = CC(C)(N)C(=O)O

# substance, units_text, EC50
data = [
    ("H-H[Aib]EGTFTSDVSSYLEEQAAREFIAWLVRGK([AEEA-AEEA-γGlu-C16 diacid])GGGGGEASELSTAALGRLSAELHELATLK([AEEA-AEEA-γGlu-C16 diacid])RTETGSGSP-NH2 [Compound 0284]", "pM", 32.8),
    ("HWEGTFTSD-K([2-[2-[2-[[2-[2-[2-[[(4S)-4-Carboxy-4-[[4-[(19-Carboxynonadecanoylamino)Methyl]Cyclohexanecarbonyl]Amino]Butanoyl]Amino]Ethoxy]Ethoxy]Acetyl]Amino]Ethoxy]Ethoxy]Acetyl])-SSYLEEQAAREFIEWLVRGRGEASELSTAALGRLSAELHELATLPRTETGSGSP-amide [Compound 0272]", "pM", 11.3),
    ("H-H[Aib]EGTFTSDVSSYLEEK([AEEA-AEEA-γGlu-C16 diacid])AAREFIAWLVRGRGGGGGASELSTAALGRLSK([AEEA-AEEA-γGlu-C16 diacid])ELHELATLPRTETGSGSP-NH2 [Compound 0295]", "pM", 32.7),
    ("H-H[Aib]EGTFTSDVSSYLEEK([AEEA-AEEA-γGlu-Trx-C20 diacid])AAREFIAWLVRGRGGGGEASELSTAALGRLSAELHELATLPRTETGSGSP-NH2 [Compound 0265]", "pM", 8.1),
    ("H-H[Aib]EGTFTSDVSSYLEEK([AEEA-AEEA-γGlu-C16 diacid])AAREFIAWLVRGRGGGGGEASELSTAALGRLSAELHELK([AEEA-AEEA-γGlu-C16 diacid])TLPRTETGSGSP-NH2 [Compound 0396]", "pM", 32.8),
    ("HWEGTFTSDVSSYLEEK([εLys-AEEA-AEEA-γGlu-Trx-C20 diacid])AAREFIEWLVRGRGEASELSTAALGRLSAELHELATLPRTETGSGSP-NH2 [Compound 0434]", "pM", 13.9),
    ("H-H[Aib]EGTFTSDVSK([AEEA-X1])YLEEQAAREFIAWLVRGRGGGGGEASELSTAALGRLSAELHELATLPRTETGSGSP-NH2 [Compound 0564]", "pM", 14.5),
    ("H-H[Aib]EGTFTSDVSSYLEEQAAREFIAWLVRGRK(Butyryl(4-SO2NHCO(CH2)16Tz))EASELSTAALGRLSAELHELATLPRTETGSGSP-NH2 [Compound 0103]", "pM", 11.6),
    ("Desaminohistidyl-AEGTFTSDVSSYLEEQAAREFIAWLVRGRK([AEEA-AEEA-γGlu-Trx-C20 diacid])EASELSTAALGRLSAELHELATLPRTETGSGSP-NH2 [Compound 0035]", "pM", 16),
]
